# Test system: Escherichia coli IAI1
# method: fold change of Cadaverine concentration vs plate DMSO controls (fold change (ratio)); higher = more amine produced, active = hit call of the paper (significant change in both replicates, either direction)
# experimentalSetup: incubation time: 27 h, anaerobic, 37 °C
Structures can show the parent of a compound that is named as a salt.
observable: fold change of Cadaverine concentration
Give bare numbers.

// worked examples, fold change of Cadaverine concentration included
compound | fold change of Cadaverine concentration
NCC[C@H](O)C(=O)N[C@@H]1C[C@H](N)[C@@H](O[C@H]2O[C@H](CN)[C@@H](O)[C@H](O)[C@H]2O)[C@H](O)[C@H]1O[C@H]1O[C@H](CO)[C@@H](O)[C@H](N)[C@H]1O [Amikacin hydrate] (20 µM) | 0.922
CC(=O)[C@@]1(O)CC[C@H]2[C@@H]3C[C@H](C)C4=CC(=O)C=C[C@]4(C)[C@@]3(F)[C@@H](O)C[C@@]21C [Fluorometholone] (20 µM) | 0.957
Cc1onc(-c2c(Cl)cccc2Cl)c1C(=O)N[C@@H]1C(=O)N2[C@@H]1SC(C)(C)[C@@H]2C(=O)O [Dicloxacillin sodium salt hydrate] (20 µM) | 1.03
CN(C)CCOC(=O)COc1ccc(Cl)cc1 [Meclofenoxate hydrochloride] (20 µM) | 1.02
O=S(=O)(O)c1cc(O)ccc1O [Ethamsylate diethylammonium salt] (20 µM) | 1.02

Asked: Respond only with fold change of Cadaverine concentration recorded for O=C(O)c1cccnc1Nc1cccc(C(F)(F)F)c1 [Niflumic acid] (20 µM)
Given back: 0.996

---

Consider the following compounds; for each one, report its growth.
# System: Clostridium sporogenes DSM 1664
# method: growth (OD595) fold change vs plate DMSO controls (fold change (ratio)); higher = more growth
# experimentalSetup: incubation time: 27 h, anaerobic, 37 °C
Where a name gives a salt, the structure may show the parent alone.
Answers are plain numbers.

compound | reportedResult
O=C1CCc2ccc(OCCCCN3CCN(c4cccc(Cl)c4Cl)CC3)cc2N1 [Aripiprazole] (20 µM) | 1.06
COc1ccc(-c2noc(CC(=O)O)c2-c2ccc(OC)cc2)cc1 [Mofezolac] (20 µM) | 0.876
CCOc1cc(N)c(Cl)cc1C(=O)NCC1CN(Cc2ccc(F)cc2)CCO1 (centres undefined) [Mosapride] (20 µM) | 1.14

Asked: State its growth for this compound: CN1CCc2cccc3c2[C@H]1Cc1ccc(O)c(O)c1-3 [R(-) Apomorphine hydrochloride hemihydrate] (20 µM)
Given back: 1.05

---

# Tested on: Klebsiella aerogenes DSM 30053
# method: fold change of Putrescine concentration vs plate DMSO controls (fold change (ratio)); higher = more amine produced, active = hit call of the paper (significant change in both replicates, either direction)
# experimentalSetup: incubation time: 27 h, anaerobic, 37 °C
Where a name gives a salt, the structure may show the parent alone.
class 1 means recorded fold change of Putrescine concentration is 1 or above; class 0 means it is below 1.

compound | testTarget | classLabel
N[C@H]1CONC1=O [(S,-) Cycloserine] (20 µM) | Klebsiella aerogenes DSM 30053 | class 1

Asked: Determine whether this compound has fold change of Putrescine concentration no lower than 1: O=C1OC(CN2CCOCC2)CN1/N=C/c1ccc([N+](=O)[O-])o1 (configuration not stated) [Furaltadone hydrochloride] (20 µM)
Given back: class 0

Asked: Check if fold change of Putrescine concentration >= 1 (inclusive). Item: Cn1c(=O)c2nc[nH]c2n(C)c1=O [Theophylline monohydrate] (20 µM)
Given back: class 0

Asked: Could you tell me if the measured fold change of Putrescine concentration of Cc1ccc(-c2ncc(Cl)cc2-c2ccc(S(C)(=O)=O)cc2)cn1 [Etoricoxib] (20 µM) reaches 1 or more?
Given back: class 0

Asked: Is fold change of Putrescine concentration for OC[C@@H](O)[C@@H](O)[C@@H](O)[C@@H](O)CO [Allitol] (50 µM) at or above 1?
Given back: class 1

Asked: Can CC(=O)[C@H]1CC[C@H]2[C@@H]3CCC4=CC(=O)CC[C@]4(C)[C@H]3CC[C@]12C [Progesterone] (20 µM) be said to have fold change of Putrescine concentration at or above 1?
Given back: class 0

---

Answer each item with its documented fold change of Putrescine concentration.
# Test system: Escherichia coli IAI1
# method: fold change of Putrescine concentration vs plate DMSO controls (fold change (ratio)); higher = more amine produced, active = hit call of the paper (significant change in both replicates, either direction)
# experimentalSetup: incubation time: 27 h, anaerobic, 37 °C
Where a name gives a salt, the structure may show the parent alone.

molecule | reportedResult
CCC(=O)O[C@@H](O[P@](=O)(CCCCc1ccccc1)CC(=O)N1C[C@H](C2CCCCC2)C[C@H]1C(=O)O)C(C)C [Fosinopril] (20 µM) | 1.3 (inactive)

State recorded fold change of Putrescine concentration for all listed molecules.
1. CC(=O)NS(=O)(=O)c1ccc(N)cc1 [Sulfacetamide sodic hydrate] (20 µM)
2. COc1ccc2c(c1)N(C[C@H](C)CN(C)C)c1ccccc1S2 [Methotrimeprazine maleate salt] (20 µM)
3. CC(C)n1c(/C=C/C(O)CC(O)CC(=O)O)c(-c2ccc(F)cc2)c2ccccc21 (stereo not given) [Fluvastatin sodium salt] (20 µM)
4. CCN[C@H]1CN(CCCOC)S(=O)(=O)c2sc(S(N)(=O)=O)cc21 [Brinzolamide] (20 µM)
5. CCCCCN(C)CCC(O)(P(=O)(O)O)P(=O)(O)O [Ibandronate sodium] (20 µM)
6. CCCN(CCC)CCc1cccc2c1CC(=O)N2 [Ropinirole hydrochloride] (20 µM)

Given back:
["1.02 (inactive)", "1.19 (inactive)", "1.02 (inactive)", "1.05 (inactive)", "1 (inactive)", "0.952 (inactive)"]

Below are some molecules; for each one, tell me its fold change of Putrescine concentration.
1. Cc1onc(-c2c(Cl)cccc2Cl)c1C(=O)N[C@@H]1C(=O)N2[C@@H]1SC(C)(C)[C@@H]2C(=O)O [Dicloxacillin sodium salt hydrate] (20 µM)
2. CCOC(=O)C1=C[C@@H](OC(CC)CC)[C@H](NC(C)=O)[C@@H](N)C1 [Oseltamivir phosphate] (20 µM)
3. Clc1ccc(CSC(Cn2ccnc2)c2ccc(Cl)cc2Cl)cc1 (stereo not given) [Sulconazole nitrate] (20 µM)

Given back:
["0.979 (inactive)", "1.02 (inactive)", "0.922 (inactive)"]

List the reported fold change of Putrescine concentration of each molecule below.
1. NCCNCCNCCNCCN [Tetraethylenepentamine pentahydrochloride] (20 µM)
2. O=C(O)c1ccccc1C(=O)Nc1ccc(S(=O)(=O)Nc2nccs2)cc1 [Phthalylsulfathiazole] (20 µM)
3. Nc1nc2ccc(OC(F)(F)F)cc2s1 [Riluzole hydrochloride] (20 µM)
4. CC(C)OC(=O)CCC/C=C\C[C@@H]1[C@@H](CC[C@@H](O)CCc2ccccc2)[C@H](O)C[C@@H]1O [Latanoprost] (20 µM)

Given back:
1: 1.07 (inactive); 2: 1.03 (inactive); 3: 0.97 (inactive); 4: 0.928 (inactive)

Asked: Hello, please tell me recorded fold change of Putrescine concentration for this one: CC(Cc1cccc(C(F)(F)F)c1)NCCOC(=O)c1ccccc1 (stereo not given) [Benfluorex] (20 µM)
Given back: 1.06 (inactive)

---

# System: Ruminococcus gnavus DSM 108212
# method: growth (OD595) fold change vs plate DMSO controls (fold change (ratio)); higher = more growth
# experimentalSetup: incubation time: 27 h, anaerobic, 37 °C
Counter-ions that a name gives are not always drawn.
Rule: growth of 1 or more gives t; anything lower gives f.

Solved entries:
compound | classLabel
Cc1cccc(Nc2ccncc2S(=O)(=O)NC(=O)NC(C)C)c1 [Torsemide] (20 µM) | t
Cc1ncc([N+](=O)[O-])n1CC(O)CCl (stereo not drawn) [Ornidazole] (20 µM) | f
CCOC(=O)O[C@]1(C(=O)COC(=O)CC)CC[C@H]2[C@@H]3CCC4=CC(=O)C=C[C@]4(C)[C@H]3[C@@H](O)C[C@@]21C [Prednicarbate] (20 µM) | f
C[C@H](N[C@@H](CCc1ccccc1)C(=O)O)C(=O)N1CCC[C@H]1C(=O)O [Enalaprilat dihydrate] (20 µM) | t
C=C1C[C@H]2[C@@H]3C=C(C)C4=CC(=O)CC[C@]4(C)[C@H]3CC[C@]2(C)[C@@]1(OC(C)=O)C(C)=O [Melengestrol acetate] (20 µM) | t
C[C@@H]1[C@H](O)[C@@H](C)/C=C/C=C/C=C/C=C/C=C/C=C/C=C/[C@H](O[C@@H]2O[C@H](C)[C@@H](O)[C@H](N)[C@@H]2O)C[C@@H]2O[C@](O)(C[C@@H](O)C[C@@H](O)[C@H](O)CC[C@@H](O)C[C@@H](O)CC(=O)O[C@H]1C)C[C@H](O)[C@H]2C(=O)O [Amphotericin B] (20 µM) | f
N[C@@H](CCC(=O)N[C@@H](CS)C(=O)NCC(=O)O)C(=O)O [Glutathione] (20 µM) | t
O=C(Oc1ccccc1)n1c(C(F)(F)F)nc2cc(Cl)c(Cl)cc21 (20 µM) | f

Asked: Hello, I need to know if CNNCc1ccc(C(=O)NC(C)C)cc1 [Procarbazine hydrochloride] (20 µM) has measured growth not below 1. Thanks!
Given back: t

Asked: Textbook exercise: given the entry Nc1c(Br)cc(Br)cc1CN[C@H]1CC[C@H](O)CC1 [Ambroxol hydrochloride] (20 µM) , state whether its growth is greater than or equal to 1.
Given back: f
